# TARGET DESC: T1, human CRH receptor type 2 (human, UniProt Q13324 1-411)
# T1 sequence (looked up): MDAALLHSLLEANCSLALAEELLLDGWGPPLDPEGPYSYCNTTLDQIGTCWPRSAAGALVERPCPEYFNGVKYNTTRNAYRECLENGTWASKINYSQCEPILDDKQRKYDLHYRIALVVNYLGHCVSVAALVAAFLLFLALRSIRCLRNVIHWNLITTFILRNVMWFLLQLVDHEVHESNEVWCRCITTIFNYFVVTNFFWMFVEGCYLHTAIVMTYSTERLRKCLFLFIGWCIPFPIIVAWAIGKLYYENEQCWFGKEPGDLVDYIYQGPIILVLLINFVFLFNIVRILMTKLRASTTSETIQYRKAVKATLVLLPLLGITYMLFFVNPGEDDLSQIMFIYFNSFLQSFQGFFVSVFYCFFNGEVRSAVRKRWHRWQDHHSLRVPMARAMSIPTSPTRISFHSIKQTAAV
# TEST NAME: cell-based or functional assay
No end group written: not given here.
// values below are reported pA50, cAMP

Past entries and their recorded results:
TKFTCSLDVPTNIMNLLFNIAKAKNLRAQAAANAHLMAQI (NES-PEG (about 20 kDa) on Cys 5; C-terminal amide) [Pegylated Cys-variant CRHR2 peptide agonist (NES linker, PEG about 20 kDa), SEQ ID NO: 59]	~7.22 -log M
TKFTLSLDVPTNIMNLLFNIAKAKNLRAQAAACAHLMAQI-NH2 [Cys-variant CRHR2 peptide agonist, SEQ ID NO: 34]	~6.32 -log M
TKFTLSLDVPTNIMNLLFNIAKAKNLRAQAAACAHLMAQI (NES-PEG (about 20 kDa) on Cys 33; C-terminal amide) [Pegylated Cys-variant CRHR2 peptide agonist (NES linker, PEG about 20 kDa), SEQ ID NO: 87]	~6 -log M
TCFTLSLDVPTNIMNLLFNIAKAKNLRAQAAANAHLMAQI-NH2 [Cys-variant CRHR2 peptide agonist, SEQ ID NO: 3]	8.97 -log M

Exercise: Item TKFTLSLDVPTNIMNLLFNIAKAKNLRAQAAANAHLCAQI-NH2 [Cys-variant CRHR2 peptide agonist, SEQ ID NO: 38] has what recorded pA50, cAMP?
Key: ~6.67 -log M
